Values were extracted from ChEMBL document CHEMBL5108030.

# TEST_TARGET: AMP-activated protein kinase, AMPK
# ASSAY: Activation of AMPK in human HepG2 cells assessed as increase in ACC phosphorylation at Ser79 incubated for 1 hr
Catalogue of log10 EC50 values
# values: log10(EC50), units nM

// worked examples, log10 EC50 included
>>> result_value("CS(=O)(=O)c1ccc(C(=O)C2CCN(C(=O)c3ccc(C(=O)NC4CCN(Cc5ccc(F)cc5)CC4)cn3)CC2)cc1")
3.30
>>> result_value("CS(=O)(=O)c1ccc(C(=O)C2CCN(C(=O)c3ccc(C(=O)NC4CCN(Cc5ccc(C#N)cc5)CC4)cn3)CC2)cc1")
3.30
>>> result_value("CC(C)(C)C(=O)N1CCN(C(=O)c2ccc(C(=O)NC3CCN(Cc4ccc(C#N)cc4)CC3)nc2)CC1")
2.73
>>> result_value("N#Cc1ccc(CN2CCC(NC(=O)c3ccc(C(=O)N4CCC(C(=O)c5ccc(N6CCCC6)cc5)CC4)nc3)CC2)cc1")
1.30

If you can, please state the reported log10 EC50 value of N#Cc1ccc(CN2CCC(NC(=O)c3ccc(C(=O)N4CCC(C(O)c5ccc(F)cc5)CC4)cn3)CC2)cc1 (stereo unspecified) .
1.74

If you can, please state the reported log10 EC50 value of "O=C(NC1CCN(Cc2ccccc2)CC1)c1ccc(C(=O)N2CCN(Cc3ccccc3)CC2)nc1" .
1.54

If you can, please state the reported log10 EC50 value of "O=C(NC1CCN(Cc2ccc(F)cc2)CC1)c1ccc(C(=O)N2CCC(C(=O)c3ccc(N4CCCC4)cc3)CC2)nc1" .
1.08

If you can, please state the reported log10 EC50 value of "O=C(NC1CCN(Cc2ccc(F)cc2)CC1)c1ccc(C(=O)N2CCC(C(=O)c3ccc(-n4cccn4)cc3)CC2)nc1" .
1.32

If you can, please state the reported log10 EC50 value of "N#Cc1ccc(CN2CCC(NC(=O)c3ccc(C(=O)N4CCC(Cc5ccccc5)CC4)cn3)CC2)cc1" .
2.04

If you can, please state the reported log10 EC50 value of "N#Cc1ccc(CN2CCC(NC(=O)c3ccc(C(=O)N4CCC(F)(C(=O)c5ccc(F)cc5)CC4)cn3)CC2)cc1" .
0.30

If you can, please state the reported log10 EC50 value of CC(c1ccccc1)N1CCC(NC(=O)c2ccc(C(=O)N3CCN(Cc4ccc(F)cc4)CC3)cn2)CC1 (stereo unspecified) .
2.11

If you can, please state the reported log10 EC50 value of "COc1ccc(S(=O)(=O)N2CCN(C(=O)c3ccc(C(=O)NC4CCN(Cc5ccc(C#N)cc5)CC4)nc3)CC2)cc1" .
2.74

If you can, please state the reported log10 EC50 value of "O=C(c1ccc(C(=O)N2CCN(Cc3ccccc3)CC2)nc1)N1CCN(Cc2ccccc2)CC1" .
4.00

If you can, please state the reported log10 EC50 value of "COc1ccc(C(=O)C2CCN(C(=O)c3ccc(C(=O)NC4CCN(Cc5ccc(NC(C)=O)cc5)CC4)cn3)CC2)cc1" .
3.00

If you can, please state the reported log10 EC50 value of "CC1(C)CN(C(=O)c2ccc(C(=O)NC3CCN(Cc4ccc(C#N)cc4)CC3)nc2)CCN1Cc1ccc(F)cc1" .
0.00

If you can, please state the reported log10 EC50 value of "N#Cc1ccc(CN2CCC(NC(=O)c3ccc(C(=O)N4CCC(Oc5ccc(C#N)cc5)CC4)nc3)CC2)cc1" .
1.96
